Item-by-item account of log10 solubility kinetic
# CONDITION: buffer; pH 7.4; 200.0 µM
MEASUREMENT TYPE: log10 solubility kinetic (log10 of the value in µg/mL)

MOLECULE: O=C(COC(=O)c1cccs1)NCCc1ccc(F)cc1
log10 solubility kinetic: 1.63
//
MOLECULE: COC(=O)N1c2ccccc2CCc2ccccc21
log10 solubility kinetic: 1.56
//
MOLECULE: N#Cc1ccccc1COC(=O)c1ccc2c(c1)OCO2
log10 solubility kinetic: 0.72
//
MOLECULE: Cc1ccc(C(=O)N2CCN(Cc3ccc4c(c3)OCO4)CC2)c(Cl)c1
log10 solubility kinetic: 1.74
//
MOLECULE: CCOC(=O)Cc1csc(NC(=O)c2cc3ccccc3o2)n1
log10 solubility kinetic: 1.02
//
MOLECULE: COc1ccc(C(=O)NC2CCCCCCC2)cc1OC
log10 solubility kinetic: 1.18
//
MOLECULE: CCNC(=S)N1CCn2cccc2C1c1cccnc1 (stereo not given)
log10 solubility kinetic: 1.61
//
MOLECULE: Cc1cc(F)ccc1NC(=S)NCCc1ccccc1
log10 solubility kinetic: 1.35
//
MOLECULE: CC(C)C(C)N(Cc1cccc(C(=O)O)c1)C(=O)c1ccc2ccccc2n1 (stereo not given)
log10 solubility kinetic: 1.50
//
MOLECULE: CCc1c(C)nc(N2CCN(c3ccc(F)cc3)CC2)[nH]c1=O
log10 solubility kinetic: 0.32
//
MOLECULE: Oc1cccnc1Sc1cccc(C(F)(F)F)c1
log10 solubility kinetic: 1.58
//
MOLECULE: Cc1cc(/C=C2\SC(=O)N(C)C2=O)c(C)n1-c1ccc(O)cc1
log10 solubility kinetic: 0.75
